- experimental-target: T1, human CD38 extracellular domain (ECD), tagged (human, Avitag biotinylated (in the ELISAs))
- T1 construct: also called human CD38 ED; biotinylated human CD38
- protocol-notes: SPR (Biacore T200), antibody captured on Protein A, CD38 ED as analyte, 1:1 Langmuir fit;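 note: CM5 sensor chip in HBS-P buffer at pH 7.4, antibody loaded at 5 µg/mL, responses corrected against a blank reference flow cell before fitting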
experimental-endpoint: kon (M⁻¹ s⁻¹)
Kindly answer with a numeric value in M⁻¹ s⁻¹, unit omitted.

Examples with answers:
Assign kon to the following record: R10A2 IgG1 (antibody, V domains shown, chimeric rat-human IgG1) VH: EVQLQQSGPEVGRPGSSVKISCKASGYTFTDSVMNWVKQSPGQGLEWIGWIDPEYGRTDVAEKFKKKATLTADSSSSTAYIYLSGLTSEDTATYFCARTKYNSGYGFPYWGQGSLVTVSS VL: DIVMTQSPTSISISVGERVTMNCKASQNVDSDVDWYQQKTGQSPKLLIYKASNRYTGVPDRFTGSGSGTDFTFTISNMQAEDLAVYYCMQSNTHPRTFGGGTKLELKR 660000

Assign kon to the following record: R5D1 IgG1 (antibody, V domains shown, chimeric rat-human IgG1) VH: EVQLQQSGPEVGRPGSSVKISCKASGYTFTDYIMHWVKQSPGQGLEWIGWIDPEYGRTDYAEKFKKKATLTADTSSSTAYIQLSSLASEDTATYFCARSAHTTGFGFAYWGQGTLVTVSS VL: DIQMTQSPASLSASLGETVTIECRASEDIYSNLAWYQQKPGNSPQLLIYDANSLADGVPSRFSASGSGTQFSLKINSLRSEDVASYFCQQYNNYPYTFGAGTKLELKR 243000

Assign kon to the following record: X355/02 IgG1 (antibody, V domains shown, human IgG1 from phage-derived Fab) VH: QLQLQESGPGLVKPSETLSLTCTVSGGSISSSSYYWSWIRQHPGKGLEWIGYIYYSGSTNYNPSLKSRVTISVDTLKNQISLRLTSVTAADTAVYYCARVGGAGGWPMDVWGQGTTVTVSS VL: QAVLTQPASLSASPGESARLTCTLPSDINVRYYNIYWYQQKPGSPPRYLLYYYSDSHKGQGSGVPSRFSGSKDVSTNSGILLISGLQSEDEADYYCMTWSSNGSGVFGGGTQLTVLG 118000

The record that follows has no kon shown yet.
Assign kon to the following record: R5E8 IgG1 (antibody, V domains shown, chimeric rat-human IgG1) VH: EVQLQQSGPEVGRPGSSVKISCKASGYIFTDYIMHWVKQSPGQGLEWIGWIDPEYGSTDYAEKFKKKATLTADTSSSTAYIQLSSLTSEDTATYFCARVAIITTVASGGFAYWGQGTLVTVSS VL: DIVMTQGALPNPVPSGESASITCQSSESLLHSNGKTYLNWYLQRPGQSPQLLIYWMSTRAAGVSDRFSGSGSGTDFTLTISGVEAEDVGVYYCQQFLEYPPTFGSGTKLEIKR 405000
